assay: Growth inhibition of human RXF393 cells after 48 hrs by SRB assay; type: functional; conditions: RXF 393, 48 h
readout name: GI50
Your answer should be a number followed by the unit of measure.

Consider the molecule COc1cc(C(=O)/C=C/c2c(C(F)(F)F)nc3ccccn23)cc(OC)c1OC . State its measured GI50. 1870 nM

Consider the molecule COc1ccc(-c2nc3ncccn3c2/C=C/C(=O)c2cc(OC)c(OC)c(OC)c2)cc1 . State its measured GI50. 1110 nM

Consider the molecule COc1ccc(-c2nc3ccccn3c2/C=C/C(=O)c2cc(OC)c(OC)c(OC)c2)cc1 . State its measured GI50. 2940 nM

Consider the molecule COc1cc(C(=O)/C=C/c2c(-c3ccc(F)cc3)nc3ncccn23)cc(OC)c1OC . State its measured GI50. 1440 nM

---

system: NCI-H522; assay: Growth inhibition of human NCI-H522 cells after 48 hrs by SRB assay; format: functional; conditions: NCI-H522, 48 h
Please respond with Y when measured GI50 is strictly beneath 3000 nM, and with N in all other cases.

Sample answers from the record:
COc1ccc(-c2nc3ccccn3c2/C=C/C(=O)c2cc(OC)c(OC)c(OC)c2)cc1OC	Y
COc1cc(C(=O)/C=C/c2c(C(F)(F)F)nc3ccccn23)cc(OC)c1OC	Y
COc1cc(C(=O)/C=C/c2c(-c3cccs3)nc3ccccn23)cc(OC)c1OC	Y
COc1ccc(-c2nc3ccccn3c2/C=C/C(=O)c2cc(OC)c(OC)c(OC)c2)cc1	N
COc1ccc(C(=O)/C=C/c2c(C(F)(F)F)nc3ccccn23)cc1OC	N
COc1cc(C(=O)/C=C/c2c(-c3ccc(F)cc3)nc3ncccn23)cc(OC)c1OC	Y

# ---- query compound ----
Please indicate whether the reported GI50 of COc1ccc(-c2nc3ncccn3c2/C=C/C(=O)c2cc(OC)c(OC)c(OC)c2)cc1 is strictly below 3000 nM. Y

---

test: Growth inhibition of human OVCAR8 cells after 48 hrs by SRB assay; assay type: functional; settings: OVCAR-8, 48 h
readout name: GI50 (nM)
Respond with the bare value in nM.

Example entries and their recorded answers appear below.
COc1ccc(-c2nc3ncccn3c2/C=C/C(=O)c2cc(OC)c(OC)c(OC)c2)cc1	2720
COc1ccc(-c2nc3ccccn3c2/C=C/C(=O)c2cc(OC)c(OC)c(OC)c2)cc1OC	2830
COc1cc(C(=O)/C=C/c2c(-c3cccs3)nc3ccccn23)cc(OC)c1OC	1680
COc1ccc(C(=O)/C=C/c2c(C(F)(F)F)nc3ccccn23)cc1OC	1310

Consider the molecule COc1cc(C(=O)/C=C/c2c(C(F)(F)F)nc3ccccn23)cc(OC)c1OC . State its measured GI50. 3390

Consider the molecule COc1cc(C(=O)/C=C/c2c(-c3ccc(F)cc3)nc3ncccn23)cc(OC)c1OC . State its measured GI50. 2690

Consider the molecule COc1ccc(-c2nc3ccccn3c2/C=C/C(=O)c2cc(OC)c(OC)c(OC)c2)cc1 . State its measured GI50. 3920

---

test system: A498; test: Growth inhibition of human A498 cells after 48 hrs by SRB assay; type: functional; details: A498, 48 h
Documented GI50 across a set of compounds
Respond with the bare value in µM.

COc1ccc(-c2nc3ccccn3c2/C=C/C(=O)c2cc(OC)c(OC)c(OC)c2)cc1OC	2.93
COc1cc(C(=O)/C=C/c2c(-c3cccs3)nc3ccccn23)cc(OC)c1OC	0.98
COc1ccc(C(=O)/C=C/c2c(C(F)(F)F)nc3ccccn23)cc1OC	2.45
COc1ccc(-c2nc3ccccn3c2/C=C/C(=O)c2cc(OC)c(OC)c(OC)c2)cc1	10.4
COc1cc(C(=O)/C=C/c2c(C(F)(F)F)nc3ccccn23)cc(OC)c1OC	2.4
COc1cc(C(=O)/C=C/c2c(-c3ccc(F)cc3)nc3ncccn23)cc(OC)c1OC	2.2

Consider the compound COc1ccc(-c2nc3ncccn3c2/C=C/C(=O)c2cc(OC)c(OC)c(OC)c2)cc1 . State its measured GI50. 2.13

---

experiment: Growth inhibition of human UACC257 cells after 48 hrs by SRB assay; format: functional; conditions: UACC-257, 48 h
Documented GI50 across a set of compounds
Respond with the bare value in nM.

Example entries and their recorded answers appear below.
COc1ccc(C(=O)/C=C/c2c(C(F)(F)F)nc3ccccn23)cc1OC	620
COc1cc(C(=O)/C=C/c2c(-c3ccc(F)cc3)nc3ncccn23)cc(OC)c1OC	3730
COc1ccc(-c2nc3ccccn3c2/C=C/C(=O)c2cc(OC)c(OC)c(OC)c2)cc1OC	3240
COc1cc(C(=O)/C=C/c2c(C(F)(F)F)nc3ccccn23)cc(OC)c1OC	1660
COc1cc(C(=O)/C=C/c2c(-c3cccs3)nc3ccccn23)cc(OC)c1OC	1880
COc1ccc(-c2nc3ccccn3c2/C=C/C(=O)c2cc(OC)c(OC)c(OC)c2)cc1	5850

Consider the compound COc1ccc(-c2nc3ncccn3c2/C=C/C(=O)c2cc(OC)c(OC)c(OC)c2)cc1 . State its measured GI50. 1820

---

system: HL-60(TB); experiment: Growth inhibition of human HL-60(TB) cells after 48 hrs by SRB assay; type: functional; conditions: HL-60, 48 h
readout name: GI50
Your answer should be a number followed by the unit of measure.

Consider the compound COc1cc(C(=O)/C=C/c2c(-c3ccc(F)cc3)nc3ncccn23)cc(OC)c1OC . State its measured GI50. 3.33 µM

---

system: T47D; assay: Growth inhibition of human T47D cells after 48 hrs by SRB assay; assay type: functional
Please respond with 1.0 when measured GI50 is strictly beneath 2000 nM, and with 0.0 in all other cases.

Sample answers from the record:
COc1cc(C(=O)/C=C/c2c(C(F)(F)F)nc3ccccn23)cc(OC)c1OC	0.0
COc1cc(C(=O)/C=C/c2c(-c3ccc(F)cc3)nc3ncccn23)cc(OC)c1OC	0.0

Please indicate whether the reported GI50 of COc1ccc(-c2nc3ccccn3c2/C=C/C(=O)c2cc(OC)c(OC)c(OC)c2)cc1 is strictly below 2000 nM. 0.0

Please indicate whether the reported GI50 of COc1ccc(C(=O)/C=C/c2c(C(F)(F)F)nc3ccccn23)cc1OC is strictly below 2000 nM. 1.0

Please indicate whether the reported GI50 of COc1ccc(-c2nc3ncccn3c2/C=C/C(=O)c2cc(OC)c(OC)c(OC)c2)cc1 is strictly below 2000 nM. 0.0

Please indicate whether the reported GI50 of COc1cc(C(=O)/C=C/c2c(-c3cccs3)nc3ccccn23)cc(OC)c1OC is strictly below 2000 nM. 1.0

Please indicate whether the reported GI50 of COc1ccc(-c2nc3ccccn3c2/C=C/C(=O)c2cc(OC)c(OC)c(OC)c2)cc1OC is strictly below 2000 nM. 0.0

---

test system: NCI-H322M; assay: Growth inhibition of human NCI-H322M cells after 48 hrs by SRB assay; format: functional
Documented GI50 across a set of compounds
Respond with the bare value in nM.

Example entries and their recorded answers appear below.
COc1cc(C(=O)/C=C/c2c(-c3cccs3)nc3ccccn23)cc(OC)c1OC	3020
COc1ccc(-c2nc3ncccn3c2/C=C/C(=O)c2cc(OC)c(OC)c(OC)c2)cc1	1760
COc1ccc(-c2nc3ccccn3c2/C=C/C(=O)c2cc(OC)c(OC)c(OC)c2)cc1	4630
COc1ccc(C(=O)/C=C/c2c(C(F)(F)F)nc3ccccn23)cc1OC	3150
COc1cc(C(=O)/C=C/c2c(-c3ccc(F)cc3)nc3ncccn23)cc(OC)c1OC	2070
COc1cc(C(=O)/C=C/c2c(C(F)(F)F)nc3ccccn23)cc(OC)c1OC	1660

Switching to the query record.
Consider the compound COc1ccc(-c2nc3ccccn3c2/C=C/C(=O)c2cc(OC)c(OC)c(OC)c2)cc1OC . State its measured GI50. 2080

---

Documented GI50 across a set of molecules
assay: Growth inhibition of human OVCAR4 cells after 48 hrs by SRB assay; format: functional; conditions: OVCAR-4, 48 h
Respond with the bare value in nM.

Consider the molecule COc1ccc(-c2nc3ccccn3c2/C=C/C(=O)c2cc(OC)c(OC)c(OC)c2)cc1 . State its measured GI50. 5720

Consider the molecule COc1cc(C(=O)/C=C/c2c(C(F)(F)F)nc3ccccn23)cc(OC)c1OC . State its measured GI50. 4100

Consider the molecule COc1ccc(-c2nc3ncccn3c2/C=C/C(=O)c2cc(OC)c(OC)c(OC)c2)cc1 . State its measured GI50. 2910

Consider the molecule COc1ccc(C(=O)/C=C/c2c(C(F)(F)F)nc3ccccn23)cc1OC . State its measured GI50. 2490

Consider the molecule COc1cc(C(=O)/C=C/c2c(-c3ccc(F)cc3)nc3ncccn23)cc(OC)c1OC . State its measured GI50. 2930

Consider the molecule COc1cc(C(=O)/C=C/c2c(-c3cccs3)nc3ccccn23)cc(OC)c1OC . State its measured GI50. 3130

Consider the molecule COc1ccc(-c2nc3ccccn3c2/C=C/C(=O)c2cc(OC)c(OC)c(OC)c2)cc1OC . State its measured GI50. 2430
